Origin of measurements: ChEMBL document CHEMBL3044899

Quick list: zone of inhibition at 200 µg/mL per entry.
- Tested on: Staphylococcus aureus
- Test: Antibacterial activity against Staphylococcus aureus MTCC 96 at 200 ug/ml by cup-plate method
- Format: functional
- Condition context: read-out: DIZ
Report only the number, with the unit mm understood.

Solved entries:
O=C1N/C(=N\c2ccc(Cl)cc2)S/C1=C\c1ccc(Cl)cc1 = 9
O=C1N/C(=N\c2ccc(F)c(Cl)c2)S/C1=C\c1cccc([N+](=O)[O-])c1 = 14
O=C1N/C(=N\c2cccc(Cl)c2)S/C1=C\c1cccc([N+](=O)[O-])c1 = 9
O=C1N/C(=N\c2cccc(Cl)c2)S/C1=C\c1ccc(Cl)cc1 = 9
O=C1N/C(=N\c2ccc(Cl)cc2)S/C1=C\c1ccccc1 = 9
O=C1N/C(=N\c2ccc(F)c(Cl)c2)S/C1=C\c1ccccc1 = 10
O=C1N/C(=N\c2cccc(Cl)c2)S/C1=C\c1ccccc1[N+](=O)[O-] = 10
O=C1N/C(=N\c2ccc(Cl)cc2)S/C1=C\c1ccc(O)cc1 = 7
O=C1N/C(=N\c2ccc(F)c(Cl)c2)S/C1=C\c1ccccc1Cl = 12
COc1cc(/C=C2\S/C(=N/c3ccc(Cl)cc3)NC2=O)ccc1O = 7

Param item = "COc1cc(/C=C2\S/C(=N/c3ccc(F)c(Cl)c3)NC2=O)ccc1O" ; retrieve measured zone of inhibition at 200 µg/mL.
9

Could you tell me which zone of inhibition at 200 µg/mL is on file for "O=C1N/C(=N\c2ccc(F)c(Cl)c2)S/C1=C\c1ccc(Cl)cc1" ?
12

Quick one: zone of inhibition at 200 µg/mL of "O=C1N/C(=N\c2cccc(Cl)c2)S/C1=C\c1ccc(O)cc1" ?
9

Consider the compound "COc1cc(/C=C2\S/C(=N/c3cccc(Cl)c3)NC2=O)ccc1O" and give its measured zone of inhibition at 200 µg/mL.
8

Request the reported zone of inhibition at 200 µg/mL associated with "O=C1N/C(=N\c2cccc(Cl)c2)S/C1=C\c1ccccc1Cl"
8

Which value of zone of inhibition at 200 µg/mL has been reported for "O=C1N/C(=N\c2ccc(Cl)cc2)S/C1=C\c1cccc([N+](=O)[O-])c1" in the records?
9
